# PROCEDURE_DETAILS: Clearance of sorafenib in cultured cells by LC-MS/MS
# Assay type: in vitro ADME
# CONDITIONS_USED: human, MHCC97-H cells (cultured HCC cells), Half-life of sorafenib (t1/2), PXR siRNA
OBSERVATION_TYPE: half-life at 1 μmol/L (h)
Report the figure in h without appending any unit label.

[in] Return reported half-life at 1 μmol/L; argument: CNC(=O)c1cc(Oc2ccc(NC(=O)Nc3ccc(Cl)c(C(F)(F)F)c3)cc2)ccn1
[out] 17.7

----------
# System: HepG2 cells
# PROCEDURE_DETAILS: MTT assay, cell survival
# Assay type: cell-based
# CONDITIONS_USED: Homo sapiens, HepG2, read-out: IC50 values of sorafenib, HepG2, solvent control
OBSERVATION_TYPE: pIC50
Reminder that pIC50 is minus the log10 of a molar concentration.

[in] Return reported pIC50; argument: CNC(=O)c1cc(Oc2ccc(NC(=O)Nc3ccc(Cl)c(C(F)(F)F)c3)cc2)ccn1
[out] 5.77

----------
# PROCEDURE_DETAILS: Clearance of sorafenib in cultured cells by LC-MS/MS
# Format: in vitro ADME
# CONDITIONS_USED: human, LM-3 cells (cultured HCC cells), Half-life of sorafenib (t1/2), LM-3 cultured cells, ETS-1 siRNA
OBSERVATION_TYPE: half-life at 1 μmol/L (h)
Report the figure in h without appending any unit label.

[in] Return reported half-life at 1 μmol/L; argument: CNC(=O)c1cc(Oc2ccc(NC(=O)Nc3ccc(Cl)c(C(F)(F)F)c3)cc2)ccn1
[out] 15.6

----------
# Test system: HepG2 cells
# PROCEDURE_DETAILS: MTT assay, cell survival
# Type: cell-based
# CONDITIONS_USED: Homo sapiens, HepG2, read-out: IC50 values, HepG2, MTT
OBSERVATION_TYPE: IC50 (µM)
Report the figure in µM without appending any unit label.

[in] Return reported IC50; argument: O=C1NC(=O)[C@@H](c2cn3c4c(cccc24)CCC3)[C@@H]1c1c[nH]c2ccccc12
[out] 1.99

----------
# PROCEDURE_DETAILS: Clearance of sorafenib in cultured cells by LC-MS/MS
# Assay type: in vitro ADME
# CONDITIONS_USED: human, MHCC97-L cells (cultured HCC cells), Half-life of sorafenib (t1/2), solvent control
OBSERVATION_TYPE: half-life at 1 μmol/L (h)
Report the figure in h without appending any unit label.

[in] Return reported half-life at 1 μmol/L; argument: CNC(=O)c1cc(Oc2ccc(NC(=O)Nc3ccc(Cl)c(C(F)(F)F)c3)cc2)ccn1 [sorafenib]
[out] 10.2

----------
# System: LM-3 cells
# PROCEDURE_DETAILS: MTT assay, cell survival
# Assay type: cell-based
# CONDITIONS_USED: LM3, read-out: IC50 values of sorafenib, LM-3, solvent control
OBSERVATION_TYPE: IC50 (nM)
Report the figure in nM without appending any unit label.

[in] Return reported IC50; argument: CNC(=O)c1cc(Oc2ccc(NC(=O)Nc3ccc(Cl)c(C(F)(F)F)c3)cc2)ccn1
[out] 1290

----------
# PROCEDURE_DETAILS: Clearance of sorafenib in cultured cells by LC-MS/MS
# Format: in vitro ADME
# CONDITIONS_USED: human, MHCC97-H cells (cultured HCC cells), Half-life of sorafenib (t1/2), solvent control
OBSERVATION_TYPE: half-life at 1 μmol/L

[in] Return reported half-life at 1 μmol/L; argument: CNC(=O)c1cc(Oc2ccc(NC(=O)Nc3ccc(Cl)c(C(F)(F)F)c3)cc2)ccn1 [sorafenib]
[out] 9.08 h

----------
# PROCEDURE_DETAILS: Clearance of sorafenib in cultured cells by LC-MS/MS
# Format: in vitro ADME
# CONDITIONS_USED: human, MHCC97-H cells (cultured HCC cells), Half-life of sorafenib (t1/2), PXR siRNA +siRNA
OBSERVATION_TYPE: half-life at 1 μmol/L (h)
Report the figure in h without appending any unit label.

[in] Return reported half-life at 1 μmol/L; argument: CNC(=O)c1cc(Oc2ccc(NC(=O)Nc3ccc(Cl)c(C(F)(F)F)c3)cc2)ccn1
[out] 17.6

----------
# PROCEDURE_DETAILS: Clearance of sorafenib in cultured cells by LC-MS/MS
# Type: in vitro ADME
# CONDITIONS_USED: human, LM-3 cells (cultured HCC cells), Half-life of sorafenib (t1/2), LM-3 cultured cells, ARQ-197
OBSERVATION_TYPE: half-life at 1 μmol/L (h)
Report the figure in h without appending any unit label.

[in] Return reported half-life at 1 μmol/L; argument: CNC(=O)c1cc(Oc2ccc(NC(=O)Nc3ccc(Cl)c(C(F)(F)F)c3)cc2)ccn1
[out] 14.4

----------
# PROCEDURE_DETAILS: Clearance of sorafenib in cultured cells by LC-MS/MS
# Type: in vitro ADME
# CONDITIONS_USED: human, MHCC97-H cells (cultured HCC cells), Half-life of sorafenib (t1/2), ETS-1 siRNA +ARQ-197
OBSERVATION_TYPE: half-life at 1 μmol/L (h)
Report the figure in h without appending any unit label.

[in] Return reported half-life at 1 μmol/L; argument: CNC(=O)c1cc(Oc2ccc(NC(=O)Nc3ccc(Cl)c(C(F)(F)F)c3)cc2)ccn1
[out] 13.5
